Consider the following compounds and their measured IC50 readings.
# Target Or System: rat P2X7 (Rattus norvegicus (Rat))
# Sequence (Q64663 whole entry): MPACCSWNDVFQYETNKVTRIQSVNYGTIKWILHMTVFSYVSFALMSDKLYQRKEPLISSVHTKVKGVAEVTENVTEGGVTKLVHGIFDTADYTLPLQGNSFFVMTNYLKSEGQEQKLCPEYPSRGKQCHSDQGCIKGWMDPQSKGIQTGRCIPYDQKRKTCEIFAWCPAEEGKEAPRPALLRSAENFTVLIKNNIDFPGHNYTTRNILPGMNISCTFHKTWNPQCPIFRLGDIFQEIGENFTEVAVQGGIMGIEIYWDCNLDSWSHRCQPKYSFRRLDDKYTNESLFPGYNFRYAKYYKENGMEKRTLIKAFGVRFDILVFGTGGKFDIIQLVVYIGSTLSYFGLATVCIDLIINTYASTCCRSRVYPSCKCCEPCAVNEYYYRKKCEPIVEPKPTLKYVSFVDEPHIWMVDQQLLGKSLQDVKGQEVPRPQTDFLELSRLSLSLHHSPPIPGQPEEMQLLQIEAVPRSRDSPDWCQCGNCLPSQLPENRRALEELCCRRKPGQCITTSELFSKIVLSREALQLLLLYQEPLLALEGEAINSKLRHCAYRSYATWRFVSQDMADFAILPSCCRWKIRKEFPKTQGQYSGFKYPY
# Assay Summary: P2X7 antagonism in recombinant rat P2X7 cells (column headed P2X7 Rat IC50)

Some solved entries appear below for comparison.
[
  {
    "Structure As Smiles": "Cc1nc(-c2ccc(F)cc2)c2c(n1)[C@@H]1CCC[C@H](C2)N1C(=O)c1ccc(F)cc1Cl",
    "IC50": "> 10 µM"
  },
  {
    "Structure As Smiles": "Cc1nc(-c2ccn[nH]2)c2c(n1)[C@@H]1CCC[C@H](C2)N1C(=O)c1ccc(F)cc1Cl",
    "IC50": "> 10 µM"
  }
]

Please indicate recorded IC50 of Cc1nc(-c2ccc(F)cc2)c2c(n1)[C@@H]1CCC[C@H](C2)N1C(=O)c1ccnc(C(F)(F)F)c1Cl measured with rat P2X7 (Rattus norvegicus (Rat)).
> 10 µM

This collection of values is drawn from patent US10150766B2.
